B1: MMP1 (parent)
chain: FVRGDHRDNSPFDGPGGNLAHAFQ

variants of: B1; experiment: protein stability index of a GFP-peptide fusion (GPS, HEK-293T) (PSI 1-6); higher = more stable; settings: c terminus: a fixed tail appended;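 also: lentivirally expressed fusions sorted by FACS into six bins by GFP to DsRed ratio, PSI derived from sequencing read proportions per bin multiplied by bin number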
Would you kindly list protein stability index for each of these variants?
Lab note: jot the number down without any unit.

Ask: May I ask what protein stability index has been recorded for FVRGDHRDNSPFDKPGGNLAHAFQ [G14K] ?
Reply: 1.77

Ask: Given the variant FVNGDHRDNSPFDGPGGNLAHAFQ [R3N] , what is its reported protein stability index?
Reply: 2.34

Ask: Fill in: protein stability index of FVRGDHRDNSPFDGPGHNLAHAFQ [G17H] is ___
Reply: 1.9

Ask: Entry FVRGDHRDNSPFDGPGGNGAHAFQ [L19G] has what protein stability index?
Reply: 2.63

Ask: Which protein stability index value belongs to FVRGDHRCNSPFDGPGGNLAHAFQ [D8C] ?
Reply: 3.26

Ask: Look up protein stability index for this variant: FVRGDHRDNSPFDGPAGNLAHAFQ [G16A]
Reply: 1.34

Ask: What value of protein stability index has been recorded for this entry: FVRGDHRDVSPFDGPGGNLAHAFQ [N9V]
Reply: 1.87

Ask: Using the record for FVRGDHRDNSPFDGPGGNLRHAFQ [A20R] , report its protein stability index.
Reply: 1.43

Ask: Find the recorded protein stability index belonging to FVRGDHRDNSPFDGPGGELAHAFQ [N18E] and report it.
Reply: 2.15

Ask: Give its protein stability index value. Item: FVRGDHRDNSQFDGPGGNLAHAFQ [P11Q]
Reply: 2.02

Ask: Given FVRGDHRDNSPFDGPGGNLAHAFS [Q24S] , state its recorded protein stability index.
Reply: 1.02

Ask: # query: protein stability index of entry FVRGDHRDNSPFDGPGGNLVHAFQ [A20V]
Reply: 1.99

Ask: Bench note: what protein stability index did FVRGDHRDNSPFDSPGGNLAHAFQ [G14S] show?
Reply: 1.89

Ask: # get_value(readout='protein stability index', item= FVRGDHRDNSPFDGPGGNCAHAFQ [L19C] )
Reply: 1.96

Ask: Look up protein stability index for this variant: FDRGDHRDNSPFDGPGGNLAHAFQ [V2D]
Reply: 3.58

Ask: Fill in: protein stability index of FVRGDHEDNSPFDGPGGNLAHAFQ [R7E] is ___
Reply: 1.91

Ask: What measured protein stability index goes with FVRGDHRDNSCFDGPGGNLAHAFQ [P11C] ?
Reply: 2.61

Ask: Using the record for FVRGDHRDNSPFDGPGGNEAHAFQ [L19E] , report its protein stability index.
Reply: 1.99

Ask: What does the data say about its protein stability index? Entry: FVRGDHRDNSPFDGPGGNDAHAFQ [L19D]
Reply: 2.35

Ask: Given the variant FVRGDHRDNSPFDGRGGNLAHAFQ [P15R] , what is its reported protein stability index?
Reply: 3.76

Ask: Field request: protein stability index | item: FVRGDARDNSPFDGPGGNLAHAFQ [H6A]
Reply: 2.42

Ask: // returns reported protein stability index for input FVRGDHRKNSPFDGPGGNLAHAFQ [D8K]
Reply: 2.78
